# system.tested: T1, peptide CHNGGLCEEISQEV (SEQ ID NO:83), N-terminally biotinylated (human, cysteine pairing not given here)
# T1 peptide: Biotin-CHNGGLCEEISQEV
# assay.text: ELISA, biotin-peptide on neutravidin plate, antibody 1 ug/ml
Ends that are not written are not given here. * marks the point of attachment. Biotin = O=C1N[C@H]2[C@H](CS[C@H]2CCCCC(=O)*)N1
property.label: absorbance 450 nm minus 540 nm (absorbance)
Give bare numbers, in absorbance.

Reference set (2 entries):
anti-lactadherin antibody 215A9 (antibody, IgG1, V domains shown, also called 2154A9; hybridoma 215A9) VH: QVSLKESGPGILQSSQTLSLTCSFSGFSLSTSGMGVSWIRQPSGKGLEWLAHIYWNDDKRYNPSLKSRLTISKDTSRDQVFLKITSVDTADTATYFCARRPRFYRDYDEGIDFWGQGTTLTVSS VL: QAVVTQESALTTSPGETVTLTCRSSTGAVTTNNYANWVQEKPDHLFTGLIGGTNNRTPGVPARFSGSLIGDKAALTITGAQTEDEAIYFCALWYSNLWVFGGGTKLTVLG    0.03
huMc3 antibody (antibody, V domains shown) VH: EVQLVQSGAEVKKPGASVKVSCKASGYSFTGYTMHWVKQSPGMNLEWIGLINPYNGGTVYNQKFQDKATLTVDKSTSTAYMELSSLRSEDTAVYFCARRWRYTMDYWGQGTLVTVSS VL: DIVMTQSPDSLAVSLGERATITCKASQDVSIGVAWYQQKPGQSPKLLIYSASSRYTGVPDRFSGSGSGTDFTLTISSLQAEDVAVYYCQQHYTSPFTFGSGTKVEIK    0.09

Exercise: // fetch absorbance 450 nm minus 540 nm given entry anti-lactadherin antibody 399A12 (antibody, V domains shown, Murine monoclonal, kappa light chain; Variable regions identical to those of 416H9; also called hybridoma 399A12; LMBP 9491CB) VH: QVTLKESGPGVLQSSQTLSLTCSFSGFSLSTSGLGVIWIRQPSGAGLEWLAQIYWDDNKRYNPSLKSRLTISKDTSRNQVFLKITPVDTADTATYYCARRTFYDYDEGFYAMDYWGQGTSVTVSS VL: DIQMTQTTSSLSASLGDRVTITCRASQDISNYLNWYQQKPDGTIKLLIYYASRLHSGVPSRFSGSGSGTDYSLTISNLEQEDIATYFCQQGNTLPLTFGAGTKLELKR
Key: 0.02
